Target: Histamine H1 receptor (Homo sapiens)
Conditions: U-373MG ATCC
Description: Histamine H1 receptor antagonistic activity in U373MG human glioblastoma cells using fluorescence-labeled H1 as radioligand in Ca+2 assay
assay endpoint: pKB

| test smiles | measurement target | observed measurement |
| --- | --- | --- |
| CNCCN(Cc1ccc(OC)cc1)c1ccccn1 | Histamine H1 receptor (Homo sapiens) | 8.12 |
| COc1ccc(CN(CCN(C)CCCCCCNC(=O)c2ccc(-c3c4ccc5cc(O)ccc5c4oc4c3ccc3cc(=O)ccc34)c(C(=O)O)c2)c2ccccn2)cc1 | Histamine H1 receptor (Homo sapiens) | 7.18 |
| COc1ccc(CN(CCN(C)CCCCCCNC(=O)c2ccc(-c3c4ccc(=N)cc-4oc4cc(N)ccc34)c(C(=O)O)c2)c2ccccn2)cc1 | Histamine H1 receptor (Homo sapiens) | 7.68 |
| COc1ccc(CN(CCN(C)CCCCCCNC(=O)c2ccc(C(=O)O)c(-c3c4ccc(=O)cc-4oc4cc(O)ccc34)c2)c2ccccn2)cc1 | Histamine H1 receptor (Homo sapiens) | 8.4 |
